Biological target: CDK6 (Homo sapiens)
Construct: endogenous in cells
Sequence (Q00534 whole entry): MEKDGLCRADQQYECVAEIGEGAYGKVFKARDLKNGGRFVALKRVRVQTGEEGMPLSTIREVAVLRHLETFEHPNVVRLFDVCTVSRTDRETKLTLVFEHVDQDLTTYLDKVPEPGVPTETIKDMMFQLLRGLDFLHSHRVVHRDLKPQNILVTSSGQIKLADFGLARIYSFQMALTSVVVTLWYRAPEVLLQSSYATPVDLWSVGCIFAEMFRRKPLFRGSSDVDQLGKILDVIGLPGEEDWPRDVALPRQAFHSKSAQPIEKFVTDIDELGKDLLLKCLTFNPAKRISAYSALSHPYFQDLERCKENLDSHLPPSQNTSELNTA
Assay: CDK6 degradation (DC50, Dmax)
Assay type: cell-based
Experimental endpoint: DC50

Sample records with DC50:
CC(=O)c1c(C)c2cnc(Nc3ccc(N4CCN(CC5CN(c6ccc7c(c6)CN(C6CCC(=O)NC6=O)C7=O)C5)CC4)cn3)nc2n(C2CCCC2)c1=O (centres unmarked) [Compound 118] = < 50 nM
Cc1nc2c(F)cc(-c3nc(Nc4ccc(CC5CCN(C6CCN(c7ccc8c(c7)C(=O)N(C7CCC(=O)NC7=O)C8=O)CC6)CC5)cn4)ncc3F)cc2n1C(C)C (centres unmarked) [Compound 169] = 50 to 200 nM

QUERY: Give DC50 for CC(=O)c1c(C)c2cnc(Nc3ccc(N4CCN(C(=O)N5CCN(CCN6CCC(c7ccc8c(c7)CN(C7CCC(=O)NC7=O)C8=O)CC6)CC5)CC4)cn3)nc2n(C2CCCC2)c1=O (centres unmarked) [Compound 28]
RESULT: > 200 nM

QUERY: Give DC50 for CC(=O)c1c(C)c2cnc(Nc3ccc(N4CCN(CCN(C)c5cccc6c5C(=O)N(C5CCC(=O)NC5=O)C6=O)CC4)cn3)nc2n(C2CCCC2)c1=O (centres unmarked) [Compound 61]
RESULT: 50 to 200 nM

QUERY: Give DC50 for CC(=O)c1c(C)c2cnc(Nc3ccc(N4CCN(CCN5CCN(C(=O)Nc6ccc7c(c6)C(=O)N(C6CCC(=O)NC6=O)C7=O)CC5)CC4)cn3)nc2n(C2CCCC2)c1=O (centres unmarked) [Compound 43]
RESULT: 50 to 200 nM
